Test system: recombinant human ICAM1 (human, UniProt P05362 28-480, limits assumed)
Sequence (P05362 28-480 limits assumed): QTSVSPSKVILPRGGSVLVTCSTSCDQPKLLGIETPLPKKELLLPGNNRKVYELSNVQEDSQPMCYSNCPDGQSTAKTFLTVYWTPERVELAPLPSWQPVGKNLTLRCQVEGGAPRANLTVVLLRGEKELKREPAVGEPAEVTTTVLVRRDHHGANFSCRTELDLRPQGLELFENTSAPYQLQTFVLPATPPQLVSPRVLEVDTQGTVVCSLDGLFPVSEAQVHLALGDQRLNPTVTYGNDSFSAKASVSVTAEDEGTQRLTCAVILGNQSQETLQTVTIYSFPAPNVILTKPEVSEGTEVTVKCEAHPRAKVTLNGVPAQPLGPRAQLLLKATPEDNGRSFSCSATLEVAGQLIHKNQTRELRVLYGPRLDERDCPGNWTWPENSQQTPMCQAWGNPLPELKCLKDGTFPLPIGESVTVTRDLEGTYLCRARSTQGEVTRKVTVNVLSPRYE
Test method notes: SPR (Biacore 8K), antibody captured, antigen injected
Value type: pKd
pKd here: minus log base 10 of the concentration, concentration in moles per litre.

Some solved entries appear below for comparison.
10B8 (antibody, human IgG1, kappa, V domains shown, Rabbit-human chimeric anti-ICAM1: rabbit VH and VL on human IgG1 and kappa constant regions) VH: QSLEESGGRLVTPGGSLTLTCTVSGFSLSSYGMSWVRQAPGKGLEYIGWISFSGSAYYANWAKGRFTISKTSTTVDLKITSPTTEDTATYFCARGGDYGGSTYILNLWGPGTLVTVSS VL: AFELTQTPSSVEAAVGGTVTIKCQASESINSYLSWYQQKPGQPPKLLIYAASTLASGVSSRFKGSGSGTEFTLTISDLESADAATYYCQSYSGTISTSGGAFGGGTEVVVKR :: 8.48
14B3 (antibody, human IgG1, kappa, V domains shown, Rabbit-human chimeric anti-ICAM1: rabbit VH and VL on human IgG1 and kappa constant regions) VH: QSLEESGGDLVKPGASLTLTCTASGFSSSSGYYICWVRQAPGKGLEWIACIGAGSGAAYYASWAKGRFTMSKTSSTTVTLQMTSLTAADTATYFCARGGFVVGGGYGGYCFNLWGPGTLVTVSS VL: AQVLTQTASSVSATVGGTVTISCQSSESVDVNNLAWYQQKPGQPPKLLIYSASTLASGVPSRFKGSGSGTQFTLTVSDLESADAATYYCAGGYSGNIFAFGGGTAVVVKR :: 8.55

Proceeding to the next binder to report its pKd.
So what does the record say about pKd for 5B12 (antibody, human IgG1, kappa, V domains shown, Rabbit-human chimeric anti-ICAM1: rabbit VH and VL on human IgG1 and kappa constant regions) VH: QSLEESGGRLVTPGTPLTLTCTVSGFSLSSYGMSWVRQAPGKGLEYIGWISFSGSAYYANWAKGRFTISKTSTTVDLKITSPTTEDTATYFCARGGDYGGSTYILNLWGPGTLVTVSS VL: AFELTQTPSSVEAAVGGTVTIKCQASESIDSYLSWYQQKPGQPPKLLIYAASTLASGVSSRFKGSGSGTEFTLTISDLESADAATYYCQSYSGTITTSGGAFGGGTEVVVKR ?
8.56
